Target: NanoLuc (Oplophorus gracilirostris, UniProt Q9GV45, A31E/A60N/A81I/F95D/I117V/K70R/L54V/L99Q/M102K/N193R/P142E/Q151K/Q38R/Q45L/V71I/Y165I)
Construct: Engineered 19 kDa subunit variant (NanoLuc, about 171 residues, no signal peptide)
Sequence (Q9GV45 28-196 with the stated changes): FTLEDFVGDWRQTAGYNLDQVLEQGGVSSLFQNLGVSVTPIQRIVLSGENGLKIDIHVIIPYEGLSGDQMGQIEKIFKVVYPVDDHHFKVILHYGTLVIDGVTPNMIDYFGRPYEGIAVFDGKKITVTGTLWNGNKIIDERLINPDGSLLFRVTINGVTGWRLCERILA
Test: spectrofluorometric titration
Assay type: binding
Details: read-out: [drawing 2] / [drawing 5] / 4bc
PARAMETER: Kd (µM)
Write the value in µM as a bare number.

Given O=C1/C(=C/c2ccc[nH]2)N=C(/C=C/c2ccccc2)N1Cc1ccccc1 (mixture of isomers) [4bc] , state its recorded Kd. 0.59
